Data origin: paper PMC5632533

# System: ICR (CD-1) mice
# protocol: In vivo toxicity in mice (SC, IN, IP routes)
# Set-up: unit not given here
# test-parameters: serum; SC, 3 doses (1hr, 12hr, 24hr); head doses: RN7-IN10, RN7-IN8 20 mg/kg; RN7-IN9, RN7-IN6 10 mg/kg; day 7; mean±SD, 4 mice
assay-endpoint: Creatinine
Kindly provide the number alone.

>>> value_measured("FLGGLIKKWPWWPWRR-NH2 [RN7-IN9, hybrid peptide of ranalexin (residues 1-7) and indolicidin (residues 5-13)]")
35
>>> value_measured("FLGGLIKWPWWPWRR-NH2 [RN7-IN8, hybrid peptide of ranalexin (residues 1-7) and indolicidin (residues 6-13)]")
43.4
>>> value_measured("FLGGLIKWWPWRR-NH2 [RN7-IN6, hybrid peptide of ranalexin (residues 1-7) and indolicidin (residues 8-13)]")
34.89

Pending substance:
In: State the recorded Creatinine for this entry: FLGGLIKWKWPWWPWRR-NH2 [RN7-IN10, hybrid peptide of ranalexin (residues 1-7) and indolicidin (residues 4-13)]
Out: 37.8
